Test: binders of probe aHhip on microarray, primary screen, stem cell growth factor project, biochemical, small-molecule microarray, fluorescence 635/667 (AID 1087);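 note: score merges spot fluorescence at 667nm with spot signal to noise ratio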
Settings: higher = more signal
PARAMETER_MEASURED: composite z-score

[[record]]
compound = "CON=C(C)CCC(=O)OC[C@H]1O[C@H](C#Cc2ccccc2)C=C[C@@H]1Oc1ccc(C)cc1"
parameter_measured = "composite z-score"
experimental_value = 0.0854

[[record]]
compound = "CCOC(=O)[C@H](Cc1ccccc1)NC(=O)CCC1CC(OC(=O)NCCc2ccc(F)cc2)CC2(CCCC(COC(=O)NCCC(C)C)O2)O1 (stereo partly specified)"
parameter_measured = "composite z-score"
experimental_value = -0.201

[[record]]
compound = "CCN1C(=O)[C@H]2[C@@H]3C(=CC[C@H]2C1=O)C(=O)[C@H]1O[C@H]1[C@H]3O"
parameter_measured = "composite z-score"
experimental_value = -0.0346

[[record]]
compound = "CO[C@@H](C(C)C)[C@@H](C)C1OC(=O)CC1O (stereo partly specified)"
parameter_measured = "composite z-score"
experimental_value = -0.0193

[[record]]
compound = "COc1cccc([C@H]2Oc3ccc(OC)cc3C(=NOCC[C@@H]3C=C[C@H](OC(C)=O)[C@@H](COC(C)=O)O3)[C@@H]2O)c1"
parameter_measured = "composite z-score"
experimental_value = -0.21

[[record]]
compound = "CCCCOC(OCCCC)C(O)CSc1ccc2ccccc2c1 (stereo unspecified)"
parameter_measured = "composite z-score"
experimental_value = 0.157

[[record]]
compound = "CC(C)CON=C1C[C@@H](O)[C@@H](O)[C@@H]2[C@@H]3C(=O)N([C@@H](C)c4ccccc4)C(=O)[C@@H]3CC[C@@H]12"
parameter_measured = "composite z-score"
experimental_value = 0.0373

[[record]]
compound = "CCOC(=O)[C@H](Cc1ccccc1)NC(=O)CCC1CC(OC(=O)NCc2cccc3ccccc23)CC2(CCCC(COC(=O)NCC3CCCCC3)O2)O1 (stereo partly specified)"
parameter_measured = "composite z-score"
experimental_value = 0.102

[[record]]
compound = "CCOC(=O)[C@H](Cc1ccccc1)NC(=O)CCC1CC(OC(=O)NCCc2ccc(F)cc2)CC2(CCCC(COC(=O)NCCOc3ccccc3)O2)O1 (stereo partly specified)"
parameter_measured = "composite z-score"
experimental_value = 0.162

[[record]]
compound = "COC(=O)[C@@H]1CC[C@H](C)[C@@H](c2ccc(Br)cc2)N1C[C@H](O)CN=[N+]=[N-]"
parameter_measured = "composite z-score"
experimental_value = 0.478

[[record]]
compound = "CC(=O)OC[C@H]1O[C@H](CC=NO[C@H](C)c2cn([C@@H]3COC[C@H]3O)nn2)C=C[C@@H]1OC(C)=O"
parameter_measured = "composite z-score"
experimental_value = -0.0673

[[record]]
compound = "C[C@H]1CC[C@H]2C(=O)OC(COc3ccc(C(C)(C)C)cc3)CN2[C@@H]1c1ccc(Br)cc1 (stereo partly specified)"
parameter_measured = "composite z-score"
experimental_value = -0.0618

[[record]]
compound = "C=CC[C@@H]1C=C[C@H](ON=C(C)CCN2CCCCc3nc(C)c(C)cc32)[C@@H](CO)O1"
parameter_measured = "composite z-score"
experimental_value = 0.0053

[[record]]
compound = "O=C1C=C[C@@H](O)[C@@H]2[C@@H]3C(=O)N(c4cccc(Oc5ccccc5)c4)C(=O)[C@@H]3CC[C@@H]12"
parameter_measured = "composite z-score"
experimental_value = -0.274

[[record]]
compound = "O=C1[C@H]2CCn3c(=O)n(Cc4cc5c(cc4Cl)OCO5)c(=O)n3[C@H]2[C@H](O)[C@@H]2O[C@H]12"
parameter_measured = "composite z-score"
experimental_value = 0.0156

[[record]]
compound = "O=C1[C@H]2[C@H]3[C@H](O)[C@H](O)CC(=NO[C@@H]4O[C@H](CO)[C@@H](O)[C@H](O)[C@H]4O)[C@@H]3CC[C@H]2C(=O)N1C1CCCCC1"
parameter_measured = "composite z-score"
experimental_value = -0.0645

[[record]]
compound = "C[C@@H]1CC[C@H]2C(=O)N3[C@@H](CC[C@@H](C)[C@@H]3c3ccc(Br)cc3)C(=O)N2[C@H]1c1ccc(Br)cc1"
parameter_measured = "composite z-score"
experimental_value = -0.173

[[record]]
compound = "CSCC[C@@H]1NC(=O)CC=C[C@@H](C)COC(=O)[C@H](C)COC1=O"
parameter_measured = "composite z-score"
experimental_value = 0.487

[[record]]
compound = "CON=C1c2cc(OC)ccc2O[C@H](c2cccc(OC)c2)[C@H]1O"
parameter_measured = "composite z-score"
experimental_value = 0.0053

[[record]]
compound = "C=CC[C@@H]1C=C[C@H](ON=CC[C@@H]2C=C[C@H](OC(C)=O)[C@@H](COC(C)=O)O2)[C@@H](CO)O1"
parameter_measured = "composite z-score"
experimental_value = -0.314

[[record]]
compound = "CON(C)C(=O)c1nnc2c(n1)[nH]c1ccccc12"
parameter_measured = "composite z-score"
experimental_value = -0.323

[[record]]
compound = "O=C1C[C@@H](O)[C@@H](O)[C@@H]2[C@@H]3C(=O)N(C4CCCCC4)C(=O)[C@@H]3CC[C@@H]12"
parameter_measured = "composite z-score"
experimental_value = -0.0237

[[record]]
compound = "C=CC[C@@H]1C=C[C@H](Oc2ccc(C)cc2)[C@@H](COC(=O)NCc2cccc3ccccc23)O1"
parameter_measured = "composite z-score"
experimental_value = -0.251

[[record]]
compound = "OC[C@H]1O[C@H](C#Cc2ccccc2)C=C[C@@H]1O"
parameter_measured = "composite z-score"
experimental_value = 0.107

[[record]]
compound = "CC(CCN1CCCc2nc(C)c(C)cc21)=NOC[C@@H](C)[C@H](OCc1ccccc1)C(C)C"
parameter_measured = "composite z-score"
experimental_value = 0.236

[[record]]
compound = "CC(=O)OC[C@H]1O[C@H](CCON=C(C)CCN2CCCc3nc(C)c(C)cc32)C=C[C@@H]1OC(C)=O"
parameter_measured = "composite z-score"
experimental_value = 0.0722

[[record]]
compound = "CC(=O)OC[C@H]1O[C@@H](ON=C(C)C)[C@H](OC(C)=O)[C@@H](OC(C)=O)[C@@H]1OC(C)=O"
parameter_measured = "composite z-score"
experimental_value = -0.283

[[record]]
compound = "COc1ccc2c(c1)O[C@@H](c1cccc(C(F)(F)F)c1)[C@H](O)C2=O"
parameter_measured = "composite z-score"
experimental_value = -0.236

[[record]]
compound = "CC(C)=CCCC(C)=CCON=C1C[C@@H](O)[C@@H](O)[C@@H]2[C@@H]3C(=O)N(Cc4ccc5c(c4)OCO5)C(=O)[C@@H]3CC[C@@H]12"
parameter_measured = "composite z-score"
experimental_value = -0.0618

[[record]]
compound = "COc1ccc(COC(=O)NN=C2C[C@@H](O)[C@@H](O)[C@@H]3[C@@H]4C(=O)N([C@@H](C)c5ccccc5)C(=O)[C@@H]4CC[C@@H]23)cc1"
parameter_measured = "composite z-score"
experimental_value = -0.0994

[[record]]
compound = "COc1ccc(COC(=O)NN=C2C[C@@H](O)[C@@H](O)[C@@H]3[C@@H]4C(=O)N(c5cccc(Oc6ccccc6)c5)C(=O)[C@@H]4CC[C@H]23)cc1"
parameter_measured = "composite z-score"
experimental_value = -0.0994

